From: paper PMC9143880

- ASSAY METHOD TEXT: Kinetic water solubility (water-induced precipitation of DMSO stock, UHPLC)
- Type: physicochemical
- DETAILS: water (DMSO stock diluted with water), 18 °C, kinetic from dmso stock; calculated from experimentally measured water solubility in molar concentration; read-out: Exp. log S (converted)
Assign log10 of solubility to each entry below.
Heads up: the numbers are on a log10 scale; they represent solubility in µM.

Quick note, log10 of solubility for O=C(Nc1nc(-c2ccccc2)co1)c1cccnc1 [Compound 12b] landed at 2.64

Quick note, log10 of solubility for O=C(Nc1nc(-c2ccccc2)cs1)c1cccnc1 [Compound 12a] landed at 0.00

Quick note, log10 of solubility for O=C(Nc1nc(-c2ccccc2)cs1)c1ccnc(Cl)c1 [Compound 15a] landed at 0.82

Quick note, log10 of solubility for `O=C(Nc1nccs1)c1ccnc(Cl)c1` landed at 2.10

Quick note, log10 of solubility for O=C(Nc1nc(-c2ccccc2)co1)c1ccnc(Cl)c1 [Compound 15b] landed at 2.62
